system tested: T1, 4H2575-AA
T1 chain: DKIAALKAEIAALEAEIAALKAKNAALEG
measurement notes: two-hybrid library CCmax;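 note: natural log of median RNA to DNA barcode read ratio; higher means stronger binding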
experimental conditions: mean of both orientations
Give interaction score for every item shown.
One number for each entry.

>  <binder>
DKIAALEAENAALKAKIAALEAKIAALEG [4H2277-AA]

>  <interaction score>
-1.59

$$$$
>  <binder>
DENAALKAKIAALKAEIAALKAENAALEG [4H1867-AA]

>  <interaction score>
1.63

$$$$
>  <binder>
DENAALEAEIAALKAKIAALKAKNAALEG [4H1135-AA]

>  <interaction score>
0.484

$$$$

# context switch: different binder, same interaction score
Task item: Please give the documented interaction score of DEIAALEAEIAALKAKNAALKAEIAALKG [4H122-AA]
Reply: -0.393
